# credit: ChEMBL document CHEMBL4017496

Biological target: Peroxisome proliferator-activated receptor delta (Homo sapiens, UniProt Q03181)
Sequence (Q03181 whole entry): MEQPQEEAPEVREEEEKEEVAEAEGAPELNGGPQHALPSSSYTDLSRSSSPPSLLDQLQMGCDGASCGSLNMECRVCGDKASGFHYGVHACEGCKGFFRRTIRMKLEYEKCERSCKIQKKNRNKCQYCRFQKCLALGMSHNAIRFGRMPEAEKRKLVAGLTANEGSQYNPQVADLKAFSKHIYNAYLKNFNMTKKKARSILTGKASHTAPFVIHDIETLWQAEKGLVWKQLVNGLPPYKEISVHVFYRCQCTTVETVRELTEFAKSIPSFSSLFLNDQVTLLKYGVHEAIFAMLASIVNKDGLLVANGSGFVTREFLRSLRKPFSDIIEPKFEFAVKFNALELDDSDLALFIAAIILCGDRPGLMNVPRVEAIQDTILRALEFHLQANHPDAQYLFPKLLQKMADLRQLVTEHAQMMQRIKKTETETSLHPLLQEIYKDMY
Test: Displacement of Fluormone-Pan-PPAR Green from human GST-tagged PPARdelta LBD by TR-FRET assay
endpoint: pKi
Kindly note that pKi refers to -log10 of the concentration in mol/L and answer with the value alone.

Observe how each entry below is paired with its result.
CNC(=O)[C@H]1S[C@@H](n2cnc3c(NCc4cccc(I)c4)nc(Cl)nc32)[C@H](O)[C@@H]1O :: 6.80
O=C(NC1CCC1)[C@H]1S[C@@H](n2cnc3c(NCc4cccc(I)c4)ncnc32)[C@H](O)[C@@H]1O :: 5.58
CNC(=O)[C@H]1S[C@@H](n2cnc3c(NCc4cccc(I)c4)ncnc32)[C@H](O)[C@@H]1O :: 5.60
O[C@@H]1[C@H](O)CS[C@H]1n1cnc2c(NCc3cccc(I)c3)nc(Cl)nc21 :: 8.32
CCNC(=O)[C@H]1S[C@@H](n2cnc3c(NCc4cccc(I)c4)ncnc32)[C@H](O)[C@@H]1O :: 5.50
O[C@@H]1[C@H](O)CS[C@H]1n1cnc2c(NCc3ccccc3Cl)nc(Cl)nc21 :: 6.21
O=C(NC1CC1)[C@H]1S[C@@H](n2cnc3c(NCc4cccc(I)c4)ncnc32)[C@H](O)[C@@H]1O :: 5.53

We next turn to a different compound, shown below.
Suppose we examine the compound CNC(=O)[C@H]1O[C@@H](n2cnc3c(NCc4cccc(I)c4)nc(Cl)nc32)[C@H](O)[C@@H]1O [NAMODENOSON] ; what pKi value has been reported?
6.37

---

Sequence of the target: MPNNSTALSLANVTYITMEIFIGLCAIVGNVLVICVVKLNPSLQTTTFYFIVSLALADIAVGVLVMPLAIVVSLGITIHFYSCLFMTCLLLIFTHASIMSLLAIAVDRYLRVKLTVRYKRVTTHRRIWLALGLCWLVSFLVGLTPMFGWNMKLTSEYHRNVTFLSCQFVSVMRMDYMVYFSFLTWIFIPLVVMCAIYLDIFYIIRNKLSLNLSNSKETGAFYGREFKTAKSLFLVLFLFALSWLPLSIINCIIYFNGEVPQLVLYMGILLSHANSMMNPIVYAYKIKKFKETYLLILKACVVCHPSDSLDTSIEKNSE
endpoint: Ki (nM)
The reply should be a number in nM, with the unit left off.

Suppose we examine the compound O[C@@H]1[C@H](O)CS[C@H]1n1cnc2c(NCc3cccc(I)c3)ncnc21 ; what Ki value has been reported?
1.5

---

Overview of reported Activity across a group of molecules:
assay: Induction of adipogenesis in human bone marrow-derived mesenchymal stem cells assessed as adiponectin level at 4 uM measured on day 7 after 48 hrs by ELISA; type: functional, Mesenchymal stem cell
The reply should be a number in pg/mL, with the unit left off.

CNC(=O)[C@H]1O[C@@H](n2cnc3c(NCc4cccc(I)c4)nc(Cl)nc32)[C@H](O)[C@@H]1O :: 221
O=C(NC1CCC1)[C@H]1S[C@@H](n2cnc3c(NCc4cccc(I)c4)ncnc32)[C@H](O)[C@@H]1O :: 323

Suppose we examine the molecule CNC(=O)[C@H]1S[C@@H](n2cnc3c(NCc4cccc(I)c4)nc(Cl)nc32)[C@H](O)[C@@H]1O ; what Activity value has been reported?
131

Suppose we examine the molecule CC(C)Cn1c(=O)n(C)c(=O)c2nc[nH]c21 ; what Activity value has been reported?
100

Suppose we examine the molecule COc1ccc(Cl)cc1C(=O)NCCc1ccc(S(=O)(=O)NC(=O)NC2CCCCC2)cc1 [GLYBURIDE] ; what Activity value has been reported?
838

---

Target: Peroxisome proliferator-activated receptor gamma (Homo sapiens) (UniProt P37231)
Sequence (whole entry): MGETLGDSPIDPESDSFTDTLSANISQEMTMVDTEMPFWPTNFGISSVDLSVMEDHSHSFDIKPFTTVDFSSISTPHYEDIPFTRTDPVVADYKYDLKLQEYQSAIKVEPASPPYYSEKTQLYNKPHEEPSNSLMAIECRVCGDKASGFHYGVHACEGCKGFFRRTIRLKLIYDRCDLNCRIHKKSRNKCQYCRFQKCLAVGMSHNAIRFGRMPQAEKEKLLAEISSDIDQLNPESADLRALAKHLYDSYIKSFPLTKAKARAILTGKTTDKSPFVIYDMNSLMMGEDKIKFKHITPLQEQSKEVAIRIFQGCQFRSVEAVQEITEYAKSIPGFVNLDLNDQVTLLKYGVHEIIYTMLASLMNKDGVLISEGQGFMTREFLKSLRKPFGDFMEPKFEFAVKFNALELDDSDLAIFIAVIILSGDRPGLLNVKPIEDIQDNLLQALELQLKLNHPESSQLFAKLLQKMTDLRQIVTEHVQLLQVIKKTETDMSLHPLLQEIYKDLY
Experiment: Displacement of Fluormone-Pan-PPAR Green from human GST-tagged PPARgamma LBD at 20 uM by TR-FRET assay relative to control
# cutoff 40% applies to inhibition; >= gives 1.0, < gives 0.0

Recorded results for 4 compounds are shown here.
CCNC(=O)[C@H]1S[C@@H](n2cnc3c(NCc4cccc(I)c4)ncnc32)[C@H](O)[C@@H]1O :: 0.0
O=C(NC1CC1)[C@H]1S[C@@H](n2cnc3c(NCc4cccc(I)c4)ncnc32)[C@H](O)[C@@H]1O :: 1.0
CNC(=O)[C@H]1S[C@@H](n2cnc3c(NCc4cccc(I)c4)ncnc32)[C@H](O)[C@@H]1O :: 1.0
CNC(=O)[C@H]1O[C@@H](n2cnc3c(NCc4cccc(I)c4)ncnc32)[C@H](O)[C@@H]1O :: 0.0

Now look at this one.
Determine whether measured inhibition meets or exceeds 40% for O[C@@H]1[C@H](O)CS[C@H]1n1cnc2c(NCc3ccccc3Cl)nc(Cl)nc21
0.0

---

assay: Induction of adipogenesis in human bone marrow-derived mesenchymal stem cells assessed as adiponectin level at 4 uM measured on day 7 after 48 hrs by ELISA; assay type: functional, Mesenchymal stem cell
endpoint: Activity (pg/mL)
The reply should be a number in pg/mL, with the unit left off.

Suppose we examine the compound O=C(NC1CC1)[C@H]1S[C@@H](n2cnc3c(NCc4cccc(I)c4)ncnc32)[C@H](O)[C@@H]1O ; what Activity value has been reported?
174

Suppose we examine the compound O[C@@H]1[C@H](O)CS[C@H]1n1cnc2c(NCc3cccc(Cl)c3)nc(Cl)nc21 ; what Activity value has been reported?
196

Suppose we examine the compound C[C@@H]1C[C@H]2[C@@H]3CCC4=CC(=O)C=C[C@]4(C)[C@@]3(F)[C@@H](O)C[C@]2(C)[C@@]1(O)C(=O)CO ; what Activity value has been reported?
100

Suppose we examine the compound CNC(=O)[C@H]1O[C@@H](n2cnc3c(NCc4cccc(I)c4)ncnc32)[C@H](O)[C@@H]1O ; what Activity value has been reported?
117

---

Overview of reported Activity across a group of compounds:
experiment: Induction of adipogenesis in human bone marrow-derived mesenchymal stem cells assessed as adiponectin level at 4 uM measured on day 7 after 48 hrs by ELISA; format: functional, Mesenchymal stem cell
The reply should be a number in pg/mL, with the unit left off.

Observe how each entry below is paired with its result.
O[C@@H]1[C@H](O)CS[C@H]1n1cnc2c(NCc3ccccc3Cl)nc(Cl)nc21 :: 107
CCNC(=O)[C@H]1S[C@@H](n2cnc3c(NCc4cccc(I)c4)ncnc32)[C@H](O)[C@@H]1O :: 118
O[C@@H]1[C@H](O)CS[C@H]1n1cnc2c(NCc3cccc(I)c3)nc(Cl)nc21 :: 192
CNC(=O)[C@H]1S[C@@H](n2cnc3c(NCc4cccc(I)c4)ncnc32)[C@H](O)[C@@H]1O :: 126

We next turn to a different compound, shown below.
Suppose we examine the compound O=C(NCC1CC1)[C@H]1S[C@@H](n2cnc3c(NCc4cccc(I)c4)ncnc32)[C@H](O)[C@@H]1O ; what Activity value has been reported?
242
